Biological target: Vitamin D3 receptor (Homo sapiens, UniProt P11473)
Sequence (P11473 whole entry): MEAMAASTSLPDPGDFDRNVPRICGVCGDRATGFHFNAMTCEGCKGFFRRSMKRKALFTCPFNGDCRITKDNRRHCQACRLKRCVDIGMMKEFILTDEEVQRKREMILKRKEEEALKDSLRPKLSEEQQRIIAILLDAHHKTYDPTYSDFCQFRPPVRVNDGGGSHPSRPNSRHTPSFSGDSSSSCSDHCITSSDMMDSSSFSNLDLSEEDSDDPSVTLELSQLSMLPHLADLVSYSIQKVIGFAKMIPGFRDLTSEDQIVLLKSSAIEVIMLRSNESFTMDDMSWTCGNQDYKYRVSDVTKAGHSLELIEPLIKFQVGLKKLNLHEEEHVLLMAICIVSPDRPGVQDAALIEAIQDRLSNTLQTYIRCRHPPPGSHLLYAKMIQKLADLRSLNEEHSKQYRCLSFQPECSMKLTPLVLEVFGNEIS
Assay: Agonist activity at vitamin D receptor (unknown origin) expressed in HEK293 cells co-expressing pCMX-RXRalpha and pCMX-beta-galactosidase assessed as induction of receptor transactivation incubated for 16 to 24 hrs by luciferase reporter gene assay
pEC50: −log10 of the molar value.
PROPERTY NAME: pEC50

> print(dat)
                            chemical.string  measured
1  CC(C)(O)CCC[C@@H]1C[C@@]12CC[C@H]1[C@@H]3CCc4cc(O)ccc4[C@H]3CC[C@@]12C      5.43

(P) CC(C)(O)CCC[C@@H]1C[C@@H]2C[C@H]3[C@@H]4CCc5cc(O)ccc5[C@H]4CC[C@]3(C)[C@]12O
(Q) C[C@H](CCCC(C)(C)O)[C@H]1CC[C@H]2[C@@H]3CCc4cc(O)ccc4[C@H]3CC[C@]12C
Please tell me which of the two, P or Q , has the higher reported pEC50 value. Provide the label of your selected option as the answer.
Q
(Q: 6.07, P: 5.39)

Source listed as ChEMBL document CHEMBL4033744.
